System: SR leukemia
Test Summary: NCI-60 one-dose screen, 48 h (100 = growth as untreated, 0 = no growth, -100 = all killed)
Condition Set: 10 µM unless noted
The panel holds about 83,000 compounds, 20% with a hit somewhere; the sample as a whole holds those more often. Calls of active or inactive are those of the source. Rule for the calls: active = growth percent below 10; inactive = the rest.
Property Label: growth

# example entries with known answers
> print(dat)
                                   molecule    observed.value
1  C#Cc1ccccc1NC(=O)c1sc2nc3c(cc2c1N)CCCCC3  81.2% (inactive)
2     Cc1cccc2nc3c(n12)C(=O)C(=O)c1ccccc1-3  88.2% (inactive)
3  COc1cc(F)c(-c2nc3c(C)cccc3n2Cc2c(F)cccc2F)c(F)c1  88.3% (inactive)
4  O=C1c2ccccc2C(=O)c2c1oc1c2c(=O)[nH]c2ccc(Cl)cc21  33.7% (inactive)
5     Oc1ccc(CNNc2ccnc3c(O)cccc23)c2cccnc12  20.4% (inactive)

Recorded growth (molecule O=C(CCl)N1CCCc2ccccc21 ): 101% (inactive)

====

Test system: A498 renal
Test Summary: NCI-60 one-dose screen, 48 h (100 = growth as untreated, 0 = no growth, -100 = all killed)
Condition Set: 10 µM unless noted
Compounds without any hit were thinned out: in the full panel of roughly 83,000, 20% have a hit.
Exercise: for every item that follows, state its recorded growth.
Give bare numbers, in %.

For orientation, consider the following solved cases.
> print(dat)
                                   compound  unit.text  observed.value
1  NC(=O)c1ccc(C2C3=C(CCCC3=O)OC3=C2C(=O)c2ccccc2C3=O)cc1 (centres undefined)          %             131
2       O=C(Nc1cc(=O)[nH]c(=O)[nH]1)C(Cl)Cl          %             100
3  O=C1Nc2ccc(Cl)cc2/C1=N/c1nc(-c2ccc(F)cc2)cs1          %            33.3
4  Cc1ccc(C2=N[C@H]3CCC[C@@H]3N(c3ccccc3)C(C(Cl)Cl)=N2)cc1          %             112
5  OCCNc1nc(NCCO)nc(Nc2ccc(C3=NN(c4cc(Cl)cc(Cl)c4)C(c4ccc(C(F)(F)F)cc4)C3)cc2)n1 (centres undefined)          %            67.7
6  Cc1nc2sc(C(=O)Nc3cccc(Cl)c3C)c(N)c2cc1C(C)O (centres undefined)          %            8.96
7  C=C1C(=O)O[C@H]2[C@H]1CC/C(COC(=O)N1CCC[C@H]1C(=O)Nc1ccc(OC)c(C(N)=O)c1O)=C\CC[C@@]1(C)O[C@@H]21          %            87.9
8  COc1ccc(-c2[nH]c3ccc(OC)cc3c2C=C(C#N)C#N)cc1          %            52.6

Please find the next compound below.
growth reading for N#CC1C(c2ccc(Cl)cc2)=Nc2c(c(-c3ccccc3)nn2-c2ccccc2)C12C(=O)Nc1ccc(Cl)cc12 (centres undefined) : 60.3

====

System: SNB-75 CNS
Test Summary: NCI-60 one-dose screen, 48 h
Condition Set: 10 µM unless noted
Protocol: Growth inhibition of the SNB-75 human tumor cell line is measured as a screen for anti-cancer activity. Cells are grown in 96 well plates and exposed to the test compound for 48 hours. Compounds are tested at a single concentration, which is 10^-5 M for most compounds. The reported endpoint is percent growth (GI% or GIPRCNT), where numbers from 0 - 100% represent growth inhibition, and numbers from -100% - 0 represent cell death. For example, a value of 40 represents 60% growth inhibition. […]
About 83,000 compounds went through this panel and 20% of them were active in at least one assay; those are over-represented in the sample as a whole. The source made the active and inactive calls. Rule for the calls: active = growth percent below 10; inactive = the rest.
Select the correct class. Options are True = active, False = inactive and nothing else.

Worked examples follow.
Molecule	Assigned Category
COc1cc(C2=N/C(=C\c3cc4ccccc4nc3Oc3ccccc3)C(=O)N2C(=N)N)cc(OC)c1OC	True
CCOC(=O)c1c(C)nc2c(c1N)/C(=C/c1cccs1)C(=O)N2Cc1ccccc1	False
COc1cc(C2=NN(c3ccccc3)C(c3cccc(Nc4ccnc5cc(C(F)(F)F)ccc45)c3)C2)cc(OC)c1OC (stereo not given)	False
Cn1c2c(c3ccc(-c4ccn[nH]4)cc3c1=O)C(=O)c1ccccc1-2	False
Cc1c(Cl)cccc1NC(=O)c1sc2nc3c(cc2c1N)CCCCC3	True
COc1cc(N=Nc2cc(S(=O)(=O)O)cc3cc(S(=O)(=O)O)cc(O)c23)c(C)cc1N=Nc1c(S(=O)(=O)O)cc2cc(Nc3ccccc3)ccc2c1O	False
CCCCCOC(=O)c1ccccc1O	False
Cc1ccc2nc3nc4ccc[nH]c4cc3c2c1	False
CC(C)Cc1cc(CNC(=O)C2[C@H]3CN(C(=O)c4ccccc4)C[C@@H]23)nn1-c1ccccc1 (stereo not given in full)	False
COc1cccc(NC(=O)Nc2ccc(Oc3ncnc4[nH]c(C)c(C)c34)cc2)c1	False

Qu. # fetch the recorded call for Cc1c(Br)cccc1NC(=O)c1sc2nc3c(cc2c1N)CN(Cc1ccccc1)CC3 here
Ans. True

Qu. State the result this test recorded for CCOC(=O)c1cnn(-c2nc(-c3ccc(F)cc3)c(C#N)c(N3CCOCC3)n2)c1N .
Ans. False

Qu. Lab log entry: C=C1C(=O)O[C@H]2[C@H]1CC/C(COC(=O)c1cccnc1N)=C\CC[C@@]1(C)O[C@@H]21 — outcome as called in the assay?
Ans. False

Qu. Lab log entry: C=C1C(=O)O[C@H]2[C@H]1CC/C(COC(=O)c1c[nH]c3ccccc13)=C\CC[C@@]1(C)O[C@@H]21 — outcome as called in the assay?
Ans. True

Qu. For this molecule, state the assay outcome: O=C1Nc2ccc(Br)cc2/C1=N\N=C/c1cn(Cc2ccccc2)c2ccccc12
Ans. False

Reference source for all entries: PubChem BioAssay (NCI)
